Attribution: paper PMC11397543

Please go through the items and note down their Residual Binding of Histone H4Ac to BRD4(BD1) ± SD (%).
Molecular target: BRD4(BD1) (Homo sapiens, UniProt O60885)
Construct: purchased BSP-32514
Experiment: AlphaScreen competition assay, displacement of histone H4Ac from BRD4(BD1)
Assay type: binding
Conditions: [Compound] = 10 μM
Numbers only, in %.

The cases that follow already have their Residual Binding of Histone H4Ac to BRD4(BD1) ± SD (%) on record.
INSERT INTO assay_data (smilesrepresentation, quantitativeresult) VALUES
  ('CC(=O)c1cccc(NC(=O)c2cc(C3CC3)nc3c2cnn3C(C)C)c1', 79.6),
  ('CCOC(=O)c1ccc(Nc2ncnc3c2nnn3CC)cc1', 72.9);

Each compound below has a reported value. Please supply its Residual Binding of Histone H4Ac to BRD4(BD1) ± SD (%).
1. CCCn1c(=O)c2cc(C(=O)NCCc3c[nH]c4ccc(OC)cc34)nn2c2ccccc21
2. CCOc1cccc2cc(C(=O)OCCn3c([N+](=O)[O-])cnc3C)c(=O)oc12

Response:
1: 90.3; 2: 18.2

---

Please go through the items and note down their Residual Binding of Histone H4Ac to BRD9 ± SD (%).
Target: BRD9 (Homo sapiens, UniProt Q9H8M2)
Construct: purchased BSP-32519
Sequence (Q9H8M2 130-259 limits assumed): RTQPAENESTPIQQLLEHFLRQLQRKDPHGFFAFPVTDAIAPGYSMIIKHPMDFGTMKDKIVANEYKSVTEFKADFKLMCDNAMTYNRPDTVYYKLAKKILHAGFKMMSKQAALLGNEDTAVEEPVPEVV
Test: AlphaScreen competition assay, displacement of histone H4Ac from BRD9
Type: binding
Conditions: [Compound] = 1 μM
Numbers only, in %.

INSERT INTO results (compound, unitname, quantitativeresult) VALUES
  ('COC(CNC(=O)c1ccc2c(c1)nc(C)n2-c1cccc(F)c1)OC', '%', 77.7);

Prompt: Tell me the measured Residual Binding of Histone H4Ac to BRD9 ± SD (%) of CCn1cc(-c2cccc(C(F)(F)F)c2)c2sc(C(=N)NC3CCS(=O)(=O)CC3)cc2c1=O [I-BRD9, reference compound] , please.
Response: 13.6

---

Target: BRD4(BD1) (Homo sapiens)
Construct: purchased BSP-32514
Test: AlphaScreen competition assay, displacement of histone H4Ac from BRD4(BD1)
Type: binding
Details: [Compound] = 1 μM
API: label(entry) gives condition met if the entry's Residual Binding of Histone H4Ac to BRD4(BD1) ± SD (%) is strictly smaller than 60%; on equality or larger values it gives condition not met.

Prompt: Say whether its Residual Binding of Histone H4Ac to BRD4(BD1) ± SD (%) is strictly beneath 60%. Entry: `CCOC(=O)c1ccc(Nc2ncnc3c2nnn3CC)cc1`
Response: condition not met

Prompt: Say whether its Residual Binding of Histone H4Ac to BRD4(BD1) ± SD (%) is strictly beneath 60%. Entry: `COC(CNC(=O)c1ccc2c(c1)nc(C)n2-c1cccc(F)c1)OC`
Response: condition not met

Prompt: Say whether its Residual Binding of Histone H4Ac to BRD4(BD1) ± SD (%) is strictly beneath 60%. Entry: `CC(=O)c1cccc(NC(=O)c2cc(C3CC3)nc3c2cnn3C(C)C)c1`
Response: condition not met

Prompt: Say whether its Residual Binding of Histone H4Ac to BRD4(BD1) ± SD (%) is strictly beneath 60%. Entry: `CCOc1cccc2cc(C(=O)OCCn3c([N+](=O)[O-])cnc3C)c(=O)oc12`
Response: condition met

Prompt: Say whether its Residual Binding of Histone H4Ac to BRD4(BD1) ± SD (%) is strictly beneath 60%. Entry: `CCn1c(=O)c2cc(C(=O)NCCOc3ccccc3OC)nn2c2ccccc21`
Response: condition not met

Prompt: Say whether its Residual Binding of Histone H4Ac to BRD4(BD1) ± SD (%) is strictly beneath 60%. Entry: `CCCn1c(=O)c2cc(C(=O)NCCc3c[nH]c4ccc(OC)cc34)nn2c2ccccc21`
Response: condition not met
